Target Of Assay: norovirus GII.3 TCH strain virus-like particle (VLP) (norovirus GII.3 TCH strain)
Protocol: BLI (BLItz), biotinylated peptide on SA chip, VLP in solution
Where no end group is shown, it is not given here.
Assay Readout: koff
Provide a numeric answer, followed by its unit.

{"columns": ["Binder", "koff"],
 "data": [
  ["VCVDNDISMS (also: biotinylated, residue not given here, spacer sequence added, letters and position not given here) [norovirus-binding peptide of SEQ ID NO: 150]", "0.0118 s⁻¹"]
]}

Now turn to the next binder.
Lookup: Output koff of YVIRNSDRHN (also: biotinylated, residue not given here, spacer sequence added, letters and position not given here) [norovirus-binding peptide of SEQ ID NO: 43]
Found: 0.0793 s⁻¹
